# GI50 listing for each entry below
test system: RPMI-8226 leukemia; test: NCI tumour cell line growth inhibition, 48 h

Some entries whose results are on file:
- molecule smiles: "C/C(=N\\NC(=O)c1ccncc1)c1ccc(O)cc1O"
  reported value: "31.5 µM"
- molecule smiles: "COc1ccc(Nc2ncccc2C(=O)NCc2cn(Cc3cccc(Oc4ccccc4)c3)nn2)cc1"
  reported value: "4.84 µM"
- molecule smiles: "COc1cc2c3c(c4c5ccccc5[nH]c4c2c(OC)c1OC)C(=O)N(CCN1CCCCC1)C3=O"
  reported value: "1.06 µM"
- molecule smiles: "C[n+]1ccc(-c2c3nc(c(-c4ccc5c(ccc[n+]5C)c4)c4ccc([nH]4)c(-c4cc[n+](C)cc4)c4nc(c(-c5ccc6c(ccc[n+]6C)c5)c5ccc2[nH]5)C=C4)C=C3)cc1"
  reported value: "> 50 µM"
- molecule smiles: "COc1cc2c3c(n(CCCCl)c(=O)c2cc1OC)-c1ccc(C#N)cc1C3=O"
  reported value: "3.97 µM"

Q. Provide the documented GI50 with RPMI-8226 leukemia as the system for O=C(Nc1ccc(Br)cc1F)c1cc(Br)ccc1O
A. 0.322 µM

Q. Observed GI50 on RPMI-8226 leukemia for O=c1cccc(C#CC#C/C=C/CO)o1 , please.
A. 2.63 µM

Q. Please provide the recorded GI50 for COc1ccc(CNc2nc(NCc3ccc(OC)cc3)c3n[nH]c(C(C)C)c3n2)cc1 , tested on RPMI-8226 leukemia.
A. 3.27 µM

Q. # get_value(readout= GI50, system= RPMI-8226 leukemia) for CC[C@]12CCCN3CC[C@]4(C(=C(C(=O)OC)C1)Nc1ccccc14)[C@@H]32
A. 19.4 µM

---

test system: A549 NSCLC; experiment: NCI tumour cell line growth inhibition, 48 h
This section presents compounds with their documented GI50 values.

Below are worked cases with known answers.
- compound: "COc1ccc(/C=C/C(=O)c2ccc(Nc3ccnc4cc(Cl)ccc34)cc2)cc1"
  study target: "A549 NSCLC"
  GI50: "> 100 µM"
- compound: "COc1ccc(CNc2nc(NCc3ccc(OC)cc3)c3n[nH]c(C(C)C)c3n2)cc1"
  study target: "A549 NSCLC"
  GI50: "7.25 µM"
- compound: "O=C(/C=C/c1cccnc1)c1ccccc1O"
  study target: "A549 NSCLC"
  GI50: "37.1 µM"
- compound: "Cc1nn(-c2ccc(Br)cc2)c(C)c1CC(=O)c1cc(O)ccc1O"
  study target: "A549 NSCLC"
  GI50: "10.5 µM"
- compound: "CC[C@@]1(O)C(=O)OCc2c1cc1n(c2=O)Cc2c-1nc1ccccc1c2/C=N/OC(C)(C)C"
  study target: "A549 NSCLC"
  GI50: "< 0.01 µM"

Q. # input compound: COc1ccc(Nc2ncccc2C(=O)NCc2cn(Cc3cccc(Oc4ccccc4)c3)nn2)cc1 ; wanted: its GI50
A. 3.44 µM

Q. Item under review: O=C([O-])c1ccccc1Nc1ccccc1[O-].[Ni+3].[OH3+].[OH3+].[OH3+] . Reported GI50?
A. > 100 µM

Q. Which GI50 is reported for this compound? O=C1c2cccnc2C(=O)c2c1c(C(=O)OCCN1CCOCC1)c1ccccn21
A. 0.0205 µM

Q. Reported GI50 for COC(=O)C(Cc1ccccc1)C(=O)C(CC(=O)OC(C)(C)C)NC(=O)OC(C)(C)C (centres undefined) : what is it?
A. 26.2 µg/mL

The measured values listed here are drawn from PubChem BioAssay (NCI).
